# Tested on: MDA-N
# ASSAY EXPLANATION: NCI tumour cell line growth inhibition, 48 h
ENDPOINT NAME: TGI

See these solved cases before continuing.
                                   molecule  endpoint_name     result
0  CC(C)CC(NC(=O)C(O)C(N)Cc1ccccc1)C(=O)O (stereo unspecified)            TGI   > 100 µM
1         COc1cc2ncnc(Nc3cccc(Br)c3)c2cc1OC            TGI  > 42.9 µM
2                 O=c1oc2ccccc2cc1P(=O)(O)O            TGI   > 100 µM

(Q) Item under review: COc1cc(O)c2c(=O)c3cccc(C)c3[nH]c2c1 . Reported TGI?
(A) > 10 µM

(Q) Now give it for Clc1ccc(NCNC2Nc3ccccc3N2)cc1Cl too.
(A) > 100 µM

(Q) Now give it for OC1CCN2Cc3ccccc3N=C12 (stereo unspecified) too.
(A) > 100 µM

###

# Tested on: T-47D breast
# ASSAY EXPLANATION: NCI tumour cell line growth inhibition, 48 h
# TGI per entry

See these solved cases before continuing.
                                   molecule    result
0   CC1OC1C(=O)P(=O)(O)O (stereo not given)  > 100 µM
1  C=CC(=O)N1CCN([C@@H](CC2CC2)c2ccc([C@H](C)Nc3ncc4c(n3)N(CC)C(=O)OC4)cc2)CC1   61.3 µM
2  CN1CCN(CCCOC(=O)c2c3c(n4ccccc24)C(=O)c2ncccc2C3=O)CC1   29.6 µM
3  Cc1ccc(NC(=O)c2ccoc2)cc1-c1ccc(C(=O)NCC2CC2)cc1   > 25 µM
4          N#C/C=C(/NC(=O)Nc1ccccc1)N1CCCC1  > 100 µM

(Q) Item under review: Cc1ccc2[nH]c3c(c2c1)C1CCC(C(C)(C)C)CC1C1C(=O)N(c2ccc(Oc4ccccc4)cc2)C(=O)C31 (stereo not given) . Reported TGI?
(A) > 68.2 µM

(Q) Now give it for Cc1cc2c(cc1Cl)SSc1cc(Cl)c(C)cc1S(=O)(=O)Nc1nc(N)nn1C(O)n1nc(N)nc1NS2(=O)=O too.
(A) > 10 µM

(Q) Now give it for O=c1[nH]c(=O)n(Cc2ccc(C34CC5CC(CC(C5)C3)C4)c(O)c2)cc1F too.
(A) 44.4 µM

(Q) Now give it for O=C1c2cccnc2S(=O)(=O)N1c1ccc(Br)cc1 too.
(A) > 100 µM

(Q) Now give it for C=C1C(=O)O[C@@H]2C[C@@]3(C)CCC[C@H](C)C3=C[C@H]12 (tested in a mixture with another compound) too.
(A) 3.18 µM

(Q) Now give it for O=C(O)CN(CCN(CC(=O)O)CC(=O)O)CCN(CC(=O)O)CC(=O)O too.
(A) 14.5 µM

(Q) Now give it for CN1CCN(c2ccc3nc(-c4[nH]ncc4Nc4ncnc5[nH]ccc45)[nH]c3c2)CC1 too.
(A) > 52.4 µM

(Q) Now give it for COC(=O)C12CCCN1CCC2 too.
(A) > 100 µM

(Q) Now give it for O=[N+]([O-])C(/C(Cl)=C(/Cl)N1CCOCC1)=C1\Nc2ccccc2O1 too.
(A) > 100 µM

(Q) Now give it for C#CCOC(=O)C=[N+]=[N-] too.
(A) > 10 µM

(Q) Now give it for O=C(O)CSC1=NCCN1 too.
(A) > 100 µM

(Q) Now give it for c1ccc(CCCN2C3CCC2CN(CCOC(c2ccccc2)c2ccccc2)C3)cc1 too.
(A) 13.9 µM

(Q) Now give it for COc1cc(-c2csc(NC(=O)Nc3ccc(Cl)cc3)n2)cc(OC)c1OC too.
(A) 6.29 µM

(Q) Now give it for CCOC(=O)c1nc2ccccc2nc1Nc1cc(OC)c(OC)c(OC)c1 too.
(A) > 100 µM

(Q) Now give it for [Cu].c1ccc2c(c1)C1=NC2=NC2=NC(=NC3=NC(=NC4=NC(=N1)c1ccccc14)c1ccccc13)c1ccccc12 too.
(A) > 100 µM

(Q) Now give it for N#CSc1c[nH]c2ccc(/C=C/C(=O)/C=C(O)/C=C/c3ccc4[nH]cc(SC#N)c4c3)cc12 too.
(A) 8.82 µM

(Q) Now give it for O=C(O)C1CCCN1 (stereo not given) too.
(A) > 100 µM

(Q) Now give it for COC(=O)c1sc2nc(Nc3ccccc3)c(=Nc3ccccc3)sc2c1C too.
(A) > 100 µM

(Q) Now give it for Fc1ccc(F)c(C=NC23CC4CC(CC(C4)C2)C3)c1 too.
(A) > 10 µM

(Q) Now give it for COc1ccc(C2c3cc4c(cc3OC(N3CCOCC3)C2C)OCO4)cc1OC (stereo not given) too.
(A) > 100 µM

###

# Tested on: MALME-3M melanoma
# ASSAY EXPLANATION: NCI tumour cell line growth inhibition, 48 h
# TGI per entry

                                   compound  endpoint_name    result
0  CCOC(=O)c1nc2ccccc2nc1Nc1cc(OC)c(OC)c(OC)c1            TGI  > 100 µM
1  O=C1C(NS(=O)(=O)c2ccccc2)=C(n2ccnc2)C(=O)c2ccccc21            TGI  > 100 µM
2  CC(C)(Sc1cc(C(C)(C)C)c(O)c(C(C)(C)C)c1)Sc1cc(C(C)(C)C)c(O)c(C(C)(C)C)c1            TGI  > 100 µM
3                          O=C(O)CSC1=NCCN1            TGI  > 100 µM
4  CCOC(=O)Cn1nnc2ccc(Nc3nc4ccccc4nc3C(=O)OCC)cc21            TGI  > 100 µM

(Q) Item under review: CCOC(=O)CCCN . Reported TGI?
(A) > 100 µM

(Q) Now give it for [O-]c1ccccc1C=NCCN=Cc1ccccc1[O-].[O]=[U+2]=[O] too.
(A) > 63.5 µM

(Q) Now give it for CC(C)NC1CCCCC2c3ccccc3C12O (configuration not stated) too.
(A) > 100 µM

(Q) Now give it for CCOC(=O)c1ccc(-c2onc(C)c2Br)[nH]1 too.
(A) > 100 µM

(Q) Now give it for O=C(CN1CCCCC1)c1ccc2[nH]c(=O)oc2c1 too.
(A) > 100 µM

(Q) Now give it for O=C1c2ccccc2C(=O)N1C/C=N/NS(=O)(=O)c1cccc([N+](=O)[O-])c1 too.
(A) > 100 µM

(Q) Now give it for CN(N=O)C(=O)NC(CCCCNC(=O)OCc1ccccc1)C(=O)OCc1ccccc1 (configuration not stated) too.
(A) 89.6 µM

(Q) Now give it for C=C1C(=O)O[C@@H]2C[C@@]3(C)CCC[C@H](C)C3=C[C@H]12 (tested in a mixture with another compound) too.
(A) 2.42 µM

(Q) Now give it for COc1cc2c(cc1OCCCCCOc1ccc(-c3nc4ccccc4s3)cc1)N=C[C@@H]1CCCN1C2=O too.
(A) 37.9 µM

(Q) Now give it for CC1=C[C@H](C[C@]2(C)c3c(c4c(C)cccc4oc3=O)O[C@@H]2C)OC1=O too.
(A) > 100 µM

(Q) Now give it for O=NN(CC1(O)OCC(O)C(O)C1O)C(Cc1c[nH]c2ccccc12)C(=O)O (configuration not stated) too.
(A) > 100 µM

(Q) Now give it for CC(C)(C)CNCCO too.
(A) > 100 µM

(Q) Now give it for Cc1cc2c3c(c1)S(=O)(=O)c1cc(Cl)ccc1N3CCC2 too.
(A) > 100 µM

###

# TGI per entry
# Tested on: OVCAR-8 ovarian
# ASSAY EXPLANATION: NCI tumour cell line growth inhibition, 48 h
Where a SMILES comes first, the peptide text is derived from it. [ ]: non-standard residue; d: D form. ξ: configuration not given here. Pentanoyl(2-O,4-OH,5-Cl) = O=C(O)C(O)CC(O)CCl; Ile(3ξ) = CCC(C)[C@H](N)C(=O)O; NMeV = CN[C@H](C(=O)O)C(C)C; NMeA = CN[C@@H](C)C(=O)O; βAla = NCCC(=O)O

See these solved cases before continuing.
MOLECULE	ENDPOINT NAME	RESULT
CCC(C)[C@@H]1NC(=O)[C@@H]2CCCN2C(=O)C(CC(O)CCl)OC(=O)CCNC(=O)[C@H](C)N(C)C(=O)[C@H](C(C)C)N(C)C1=O (some centres undefined) (cyclo([Ile(3ξ)][NMeV][NMeA][βAla][Pentanoyl(2-O,4-OH,5-Cl)]P))	TGI	> 100 µM
CN(C)N1C(=C(C#N)C#N)C(c2ccccc2)CC1C#N (centres undefined)	TGI	> 100 µM
Fc1ccc(F)c(C=NC23CC4CC(CC(C4)C2)C3)c1	TGI	> 10 µM

// below: TGI requested for another molecule
(Q) Item under review: CN(c1ccccc1)c1nc(=[N+](C)C)ss1 . Reported TGI?
(A) > 100 µM
